Cited source for all entries: patent US8211929B2

system: IGF 3P (Homo sapiens)
Construct: human IGF1R kinase domain residues M954-C1367; made in house; host or cells: baculovirus expression (insect cells)
Sequence (P08069 954-1367): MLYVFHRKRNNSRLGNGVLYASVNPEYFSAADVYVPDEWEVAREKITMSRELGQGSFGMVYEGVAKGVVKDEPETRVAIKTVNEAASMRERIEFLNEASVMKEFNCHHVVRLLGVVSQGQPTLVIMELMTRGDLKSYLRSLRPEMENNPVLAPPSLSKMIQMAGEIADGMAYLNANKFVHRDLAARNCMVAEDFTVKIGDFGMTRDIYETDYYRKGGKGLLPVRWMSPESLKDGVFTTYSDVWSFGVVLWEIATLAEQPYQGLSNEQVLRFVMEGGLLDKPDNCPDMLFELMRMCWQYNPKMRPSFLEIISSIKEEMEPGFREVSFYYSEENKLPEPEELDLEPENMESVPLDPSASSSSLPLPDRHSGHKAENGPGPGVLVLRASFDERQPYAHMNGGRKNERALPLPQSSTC
assay_procedure: IGF1R kinase assay (LCCA), IGF 3P
Assay type: biochemical
run_conditions: IGF1R kinase LCCA assay
Exercise: for every item that follows, state its recorded IC50.

A selection of reference data follows.
Brc1cnc(Nc2ccc(N3CCNCC3)cc2)nc1Nc1cc(C2CC2)n[nH]1 [Example 255]    500 to 5000 nM
c1ccc(-c2cc(CNc3nc(NCCN4CCOCC4)cc(Nc4cc(C5CC5)[nH]n4)n3)on2)cc1 [Example 513]    < 50 nM
CCN(CC)CCCNc1cc(Nc2cc(C3CC3)[nH]n2)nc(NCc2cc(-c3ccccc3)no2)n1 [Example 42]    < 50 nM

Switching to the query record.
Inquiry: Returns the measured IC50 for the input compound. Input: Cc1cc(Nc2cc(C3CC3)n[nH]2)nc(Nc2ccc(C3CCNCC3)cc2)n1 [Example 553]
Reply text: 500 to 5000 nM
